Provenance of the data: PubChem BioAssay (NCI)

experiment: NCI Yeast Anticancer Drug Screen. Data for the mec2-1 strain (AID 157); conditions: S. cerevisiae mec2-1 strain, at 5.0 µM (retest, dose inferred, filed as 0.5)
This is part of a sample that, as a whole, favours compounds with a hit. Of some 79,000 tested, about 15% had one in any assay. Activity calls are given as the source filed them. Rule as the data show it: active = growth inhibition above about 70%; inactive = the rest.
Outcomes: class 1 for active, class 0 for inactive

>>> classification("C[CH2][Sn]1([CH2]C)[O]C2C(OC)OC3COC(c4ccccc4)OC3C2[O]1 (configuration not stated)")
"class 0"
>>> classification("CN(CCCl)Cc1ccc(OCc2ccccc2)c(OCc2ccccc2)c1")
"class 0"
>>> classification("C/C=C1/C(=O)O[C@]23C=C[C@@H]4C(C(=O)OC)=CO[C@H](O[C@@H]12)[C@@H]43")
"class 0"
>>> classification("O=C(N/N=C/c1cc(Br)cc(Br)c1[O-])c1ccccc1O.O=C(N/N=C/c1cc(Br)cc(Br)c1[O-])c1ccccc1O.[Mn+2]")
"class 1"
>>> classification("CC/C(=C\\c1ccc(Cl)c(Cl)c1)[N+](=O)[O-]")
"class 0"
>>> classification("CCC[CH2][Sn]1([CH2]CCC)[O]CC(CN2CCOCC2)[O]1 (configuration not stated)")
"class 0"
>>> classification("NCCCN1CCN(CCCN2CC2)CC1")
"class 0"
>>> classification("C=C1C(C)C2C(Cc3ccccc3)NC(=O)C23C(OC(C)=O)/C=C/C(C)(O)CC(C)C/C=C/C3C1O (configuration not stated)")
"class 1"
>>> classification("CCCCCc1cc(O)c(CCCC)c(O)c1")
"class 0"
>>> classification("Cc1cc(C(C)(C)c2ccc(O)c(C)c2)ccc1O")
"class 0"
>>> classification("N#Cc1cc([N+](=O)[O-])c(Cl)c([N+](=O)[O-])c1Cl")
"class 0"
>>> classification("COCCOCCOC(=O)CBr")
"class 0"
>>> classification("O=C(C[n+]1ccccc1)C1CCc2ccccc2C1 (configuration not stated)")
"class 0"
>>> classification("C/C(=C\\c1ccccc1)[N+](=O)[O-]")
"class 0"
>>> classification("C/C(=N\\NC(=S)N1CC2CCC(CC2)C1)c1nccs1")
"class 1"
>>> classification("COc1cc(/C=C/c2ccc(OC)c(O)c2)cc(OC)c1")
"class 0"
>>> classification("O=[N+]([O-])c1ccc(CS(=O)(=O)C(Cl)(Cl)Cl)o1")
"class 0"
>>> classification("C/C(CC(=O)Nc1ccc([N+](=O)[O-])cc1)=N\\Nc1ccc([N+](=O)[O-])cc1[N+](=O)[O-]")
"class 0"
>>> classification("CC12CCC3C(CCC4Cc5nc6nnnn6cc5CC43C)C1CCC2O (configuration not stated)")
"class 0"
>>> classification("CC(=O)Oc1ccc(/C=C/[N+](=O)[O-])cc1")
"class 0"
>>> classification("CN(C)C(=S)Nc1nnc(NC23CC4CC(CC(C4)C2)C3)s1")
"class 0"
>>> classification("CN(C)C(=O)OC1C(=O)N(C)c2ccc(Cl)cc2C2(c3ccccc3)N1C2(Cl)Cl (configuration not stated)")
"class 0"

====

experiment: NCI Yeast Anticancer Drug Screen. Data for the cln2 rad14 strain (AID 165);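 also: 0% = growth equal to vehicle treated cultures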; settings: S. cerevisiae cln2 rad14 strain, at 50.0 µM, active compounds read high
The panel holds about 79,000 compounds, 15% with a hit somewhere; the sample as a whole holds those more often.
MEASURED_QUANTITY: growth inhibition (%)

>>> recorded_number("C/C=C1/CN2CCC34C(=C(C(=O)OC)C1CC23)Nc1ccc(O)cc14 (stereo not given)")
-4.05
>>> recorded_number("CCN1C[C@]2(COC)[C@H](O)C[C@H](OC)[C@]34C1[C@H]([C@H](OC)[C@H]23)[C@]1(OC(C)=O)[C@H]2[C@@H](OC(=O)c3ccccc3)[C@](O)(C[C@H]24)[C@@H](OC)[C@@H]1O")
-6.85
>>> recorded_number("CN(Cc1cnc2nc(N)nc(N)c2n1)c1ccc(C(=O)NC(CCC(=O)NCC(P(=O)(O)O)P(=O)(O)O)C(=O)O)cc1 (stereo not given)")
-28.1
>>> recorded_number("CCCCNC(c1ccc(OC)cc1)C(O)c1ccc(OC)cc1 (stereo not given)")
-25.6
>>> recorded_number("C=CCc1c[nH]c(=S)[nH]c1=O.[Hg]")
98.8
>>> recorded_number("O=S(=O)(O)O.[Co+2].[NH-]CC[NH-].[NH-]CC[NH-].[NH-]CC[NH-]")
17.8
>>> recorded_number("COc1cccc(C=C(C#N)C#N)c1")
26.4
>>> recorded_number("CC[C@@]1(O)C(=O)OCc2c1c(Cl)c1n(c2=O)Cc2cc3ccccc3nc2-1")
17.7
>>> recorded_number("Cc1nc2ccccc2c(=O)n1-c1ccc(N(CCCl)CCCl)cc1")
-6.9
>>> recorded_number("Cc1cc(C)n(-c2nc3ccccc3c(=O)n2-c2ccccc2)n1")
0.4
>>> recorded_number("Oc1ccc(Nc2c3ccc(Cl)cc3nc3ccc(-c4ccccc4)cc23)cc1CN(CCCl)CCCl")
98.3
>>> recorded_number("Cc1nnnn1C")
-10.9
>>> recorded_number("C1=C[N-]c2c3c(ccc2=C1)=CC=C[N-]3.C1=C[N-]c2c3c(ccc2=C1)=CC=C[N-]3.F[P-](F)(F)(F)(F)F.[Cu+2]")
98.8
>>> recorded_number("NC(=O)c1ccc([As](=O)(O)O)cc1[N+](=O)[O-]")
-47.8
>>> recorded_number("COC1CC(OC2C(C)OC(OC3C(C)OC(OC4CCC5(C)C(=CCC6(O)C5CC(OC(=O)c5ccc(O)cc5)C5(C)C(O)(C(C)=O)CCC65O)C4)CC3OC)CC2OC)OC(C)C1O (stereo not given) (tested in a mixture with another compound)")
48.6
>>> recorded_number("CC[CH2][Pb]([CH2]CC)([CH2]CC)[O]C(C)=O")
91.3
>>> recorded_number("CN1CCN(C)C(N2CCOCC2)C(C)(C)C1 (stereo not given)")
-9.45
>>> recorded_number("Cc1c([N+](=O)[O-])cc2c(c1[N+](=O)[O-])C(C)(C)CC2(C)C")
10.4
>>> recorded_number("Cc1cc(Cl)ccc1OC(C)C(=O)O (stereo not given)")
15.3
>>> recorded_number("Cc1coc2c1CCC(C)C2 (stereo not given)")
1.55

====

experiment: NCI Yeast Anticancer Drug Screen. Data for the bub3 strain (AID 167); settings: S. cerevisiae bub3 mutant strain, at 50.0 µM
About 79,000 compounds went through this panel and 15% of them were active in at least one assay; those are over-represented in the sample as a whole. Calls of active or inactive are those of the source. Rule as the data show it: active = growth inhibition above about 70%; inactive = the rest.
Outcomes: active, inactive

>>> classification("CC12OC1(C)C1C(=O)OCC1C2=O (centres undefined)")
"inactive"
>>> classification("O=c1c(O)c(-c2ccccc2)oc2ccccc12.[Zn+2]")
"inactive"
>>> classification("CC(=O)Nc1ncc2ccccc2c1-c1ccc(NC(=O)CCN(CCCl)CCCl)cc1")
"inactive"
>>> classification("C=CC12CN(C)C3C4COC(CC41)C1(C(=O)Nc4ccccc41)C32 (centres undefined)")
"inactive"
>>> classification("[CH3][Pb]([CH3])([CH3])[O]C(=O)c1ccc([N+](=O)[O-])cc1")
"inactive"
>>> classification("CCN(CC)C(=S)[S-].CCN(CC)C(=S)[S-].O=C(O)CC([S-])C(=O)O.[Fe+3] (centres undefined)")
"inactive"
>>> classification("CC1=C/C(=C2/N=C(N(C)C)SS2)C(C)=N1")
"inactive"
>>> classification("CCOc1c(Br)cc(/C=C(\\C)[N+](=O)[O-])cc1OC")
"active"
>>> classification("CC(=O)N1CCCN(C)/C1=N/[N+](=O)[O-]")
"inactive"
>>> classification("CC[n+]1c(C)n(-c2ccccc2)c(=O)c2ccccc21")
"inactive"
>>> classification("COc1cc2c(cc1OC)C13CCN4CC5=CCOC6CC(=O)N2C1C6C5CC43 (centres undefined)")
"inactive"
>>> classification("COc1ccc2nc3cc(Cl)ccc3c(NCCCSCCCl)c2n1")
"active"
>>> classification("CC(=O)CC(C)=O.[Cl][Sb]1([Cl])[CH2]CC[CH2]1")
"inactive"
>>> classification("CC(C)CC(NC=O)C(=O)NC(Cc1ccccc1)NC(=O)CNC(=O)C(C)NC(=O)C(N)Cc1ccc(O)cc1 (centres undefined)")
"inactive"
>>> classification("COc1cc(/C=C(/C)[N+](=O)[O-])c([N+](=O)[O-])cc1OC")
"inactive"
>>> classification("CCOP(=O)(OCC)/C(C#N)=C/c1ncc[nH]1")
"inactive"
>>> classification("CC(F)C(N)C(=O)O (centres undefined)")
"inactive"
>>> classification("S=C1NCCN1")
"inactive"
>>> classification("CCOP(=O)(OCC)/C(C#N)=C/c1ccc(Br)cc1")
"active"
>>> classification("CCCCCCCC[As](=O)(O)CCCCCCCC")
"inactive"
>>> classification("O=C([O-])CN(CCN(CC(=O)[O-])CC(=O)O)CC(=O)O.[Fe+5].[Na+]")
"inactive"
>>> classification("O=C(O)CC(=O)O.[Co+2].[NH-]CC(=O)O.[NH-]CC(=O)O")
"inactive"
>>> classification("O=C1C=CC(=O)c2c(O)cccc21")
"inactive"
>>> classification("CC(C)CCC(=O)OC1CCC2(C)C(=CCC3C4CCC(=O)C4(C)CCC32)C1 (centres undefined)")
"inactive"
